Hello, the source for this data is patent US4419348A, in case you need it.

- Assay summary: in vivo
- Measurement setup: mouse, iv, 4 mg/kg
Structures can show the parent of a compound that is named as a salt.
Readout kind: Tmax (min)
Return type: number; implicit unit min.

-- ask Quick one: Tmax for COc1cccc2c1C(=O)c1c(O)c3c(c(O)c1C2=O)C[C@@](O)(C(=O)CO)C[C@@H]3O[C@H]1C[C@H](N)[C@H](O)[C@H](C)O1 [Adriamycin, doxorubicin hydrochloride] ?
-- reply 30

----------
- Assay summary: in vivo
- Measurement setup: mouse, iv, 4 mg/kg
Where a name gives a salt, the structure may show the parent alone.
Readout kind: Cmax (ng/g)
Return type: number; implicit unit ng/g.

-- ask Quick one: Cmax for COc1cccc2c1C(=O)c1c(O)c3c(c(O)c1C2=O)C[C@@](O)(C(=O)CO)C[C@@H]3O[C@H]1C[C@H](N)[C@H](O)[C@H](C)O1 [Adriamycin, doxorubicin hydrochloride] ?
-- reply 8300
